Source of measurements: ChEMBL document CHEMBL4622950

# Test system: Mycobacterium tuberculosis
# protocol.text: Antitubercular activity against Mycobacterium bovis BCG assessed as bacterial growth inhibition at 1 to 5 ug/ml by MABA relative to control
# Assay type: functional, variant bovis BCG
Listed compounds paired with reported growth inhibition (GI)
readout.kind: growth inhibition (GI) (%)

INSERT INTO measurements (compound, readout_kind, measured_number) VALUES
  ('O=c1[nH]c(=O)n([C@@H]2O[C@H](CO)[C@@H](O)[C@H]2O)cc1C#CC1CCCCC1', 'growth inhibition (GI)', 10),
  ('O=c1[nH]c(=O)n([C@@H]2O[C@H](CO)[C@@H](O)[C@H]2O)cc1C#Cc1ccccc1', 'growth inhibition (GI)', 50),
  ('O=c1[nH]c(=O)n([C@@H]2O[C@H](CO)[C@@H](O)[C@H]2O)cc1C#CC1CC1', 'growth inhibition (GI)', 50),
  ('O=c1[nH]cc(C#CC(O)c2ccccc2)c(=O)[nH]1 (stereo unspecified)', 'growth inhibition (GI)', 50),
  ('O=c1[nH]cc(C#CC2CCCCC2)c(=O)[nH]1', 'growth inhibition (GI)', 50),
  ('O=c1[nH]c(=O)n([C@@H]2O[C@H](CO)[C@@H](O)[C@H]2O)cc1C#CC(O)c1ccccc1 (stereo partly specified)', 'growth inhibition (GI)', 100);
